Substrate: CC(=O)Oc1ccc([N+](=O)[O-])cc1
Experiment: purified protein
Format: biochemical, Pelagibacterium halotolerans
Details: 100 mM Tris-HCl pH 7.5, 30 °C, 0.05-4 mM substrate in acetonitrile
Quick rule: kcat of at least 20 s⁻¹ means condition met, below that means condition not met.

Solved cases (4 shown):
INSERT INTO results (protein, assigned_category) VALUES
  ('PE8 (Pelagibacterium halotolerans B2; V171A) (protein, 6xHis fusion from pET28b in E. coli Rosetta (DE3), Ni-NTA and SEC; monomer; catalytic triad Ser118, Asp169, His201) MTEPVKLSGPMLPAVSGAAKSLVVLLHGYGSDGRDLIALGQFWRDSFPDTMFVAPNAPHVCGGNPFGYEWFPLDLERDRTLARLAGAETAHPVLDAFLADLWAQTGLGPADTILVGFSQGAMMALYTGLRLPEPLKAIIAFSGLIVAPEKLEAEIASKPPVLLIHGDLDDAVPVIGSETALPKLIDLGIDARLHISQGSGHTIAQDGLDTATAFLREIL', 'condition not met'),
  ('PE8 (Pelagibacterium halotolerans B2; R83A) (protein, 6xHis fusion from pET28b in E. coli Rosetta (DE3), Ni-NTA and SEC; monomer; catalytic triad Ser118, Asp169, His201) MTEPVKLSGPMLPAVSGAAKSLVVLLHGYGSDGRDLIALGQFWRDSFPDTMFVAPNAPHVCGGNPFGYEWFPLDLERDRTLAALAGAETAHPVLDAFLADLWAQTGLGPADTILVGFSQGAMMALYTGLRLPEPLKAIIAFSGLIVAPEKLEAEIASKPPVLLIHGDLDDVVPVIGSETALPKLIDLGIDARLHISQGSGHTIAQDGLDTATAFLREIL', 'condition met'),
  ('PE8 (Pelagibacterium halotolerans B2; S118A) (protein, 6xHis fusion from pET28b in E. coli Rosetta (DE3), Ni-NTA and SEC; monomer; catalytic triad Ser118, Asp169, His201) MTEPVKLSGPMLPAVSGAAKSLVVLLHGYGSDGRDLIALGQFWRDSFPDTMFVAPNAPHVCGGNPFGYEWFPLDLERDRTLARLAGAETAHPVLDAFLADLWAQTGLGPADTILVGFAQGAMMALYTGLRLPEPLKAIIAFSGLIVAPEKLEAEIASKPPVLLIHGDLDDVVPVIGSETALPKLIDLGIDARLHISQGSGHTIAQDGLDTATAFLREIL', 'condition not met'),
  ('PE8 (Pelagibacterium halotolerans B2; R79A) (protein, 6xHis fusion from pET28b in E. coli Rosetta (DE3), Ni-NTA and SEC; monomer; catalytic triad Ser118, Asp169, His201) MTEPVKLSGPMLPAVSGAAKSLVVLLHGYGSDGRDLIALGQFWRDSFPDTMFVAPNAPHVCGGNPFGYEWFPLDLERDATLARLAGAETAHPVLDAFLADLWAQTGLGPADTILVGFSQGAMMALYTGLRLPEPLKAIIAFSGLIVAPEKLEAEIASKPPVLLIHGDLDDVVPVIGSETALPKLIDLGIDARLHISQGSGHTIAQDGLDTATAFLREIL', 'condition met');

Is kcat at least 20 s⁻¹? Consider PE8 (Pelagibacterium halotolerans B2; L73A) (protein, 6xHis fusion from pET28b in E. coli Rosetta (DE3), Ni-NTA and SEC; monomer; catalytic triad Ser118, Asp169, His201) MTEPVKLSGPMLPAVSGAAKSLVVLLHGYGSDGRDLIALGQFWRDSFPDTMFVAPNAPHVCGGNPFGYEWFPADLERDRTLARLAGAETAHPVLDAFLADLWAQTGLGPADTILVGFSQGAMMALYTGLRLPEPLKAIIAFSGLIVAPEKLEAEIASKPPVLLIHGDLDDVVPVIGSETALPKLIDLGIDARLHISQGSGHTIAQDGLDTATAFLREIL
condition met
